Data provenance is ChEMBL document CHEMBL4312040.

- Experiment Summary: Clearance in rat at 1 mg/kg, iv
- Type: ADME, organism-based
- Stated Conditions: in vivo
Reported Property: clearance (mL/min/kg)
Output spec: scalar in mL/min/kg, unitless text.

## Input Given the compound COc1ncc(C(F)(F)F)cc1CO[C@H]1[C@H](C(C)(C)C)[C@@H](C(=O)O)N(C(=O)[C@@H]2CCCCO2)[C@H]1c1ccccc1C , what is its reported clearance?
## Output 2.17

====

- Experiment Summary: Oral bioavailability in dog at 1 mg/kg
- Type: ADME, organism-based, Canis lupus familiaris
- Stated Conditions: in vivo
Reported Property: bioavailability
# include the unit after the value

## Input Given the molecule COc1ncc(C(F)(F)F)cc1CO[C@H]1[C@H](C(C)(C)C)[C@@H](C(=O)O)N(C(=O)[C@@H]2CCCCO2)[C@H]1c1ccccc1C , what is its reported bioavailability?
## Output 78%
